tested on: TO-N3 (biotin conjugate); test: pull-down binding Z-score (relative to library population); higher = stronger binding; settings: RNA library: Library-2
pull-down binding Z-score vs -0.4: at or above is TRUE, below is FALSE.

Answered examples (4):
inputsequence=AUGCUGUUACAGCGU assignedcategory=FALSE
inputsequence="UAAUAGCAAUCCUUAAAUGCCAUUA [hsa-mir-4477b]" assignedcategory=FALSE
inputsequence=CUGUUGGUACCAAUUUACCUUUACAGCUAGGUUUUUCUACAGGUGUUAACCUAGUUGCUGUACCUACAG assignedcategory=FALSE
inputsequence="GUUAAAAUAUGAC [SHAPE_invivo_SARS-CoV-2_Motif_271]" assignedcategory=FALSE

# input Textbook exercise: given the entry CUAAAUGGUACCCACUUUAUUUAG [hsa-mir-5687] , state whether its pull-down binding Z-score is greater than or equal to -0.4.
# output FALSE

# input Textbook exercise: given the entry CAAUCAUGUAUAACUAAAUUUGAUUG [hsa-mir-514a-2_514a-3] , state whether its pull-down binding Z-score is greater than or equal to -0.4.
# output FALSE

# input Textbook exercise: given the entry UGUAAGCACAAGCUGAUGAGUACGAACUUAUGUACUCAUUCGUUUCGGAAGAGACAGGUACGUUAAUAGUUAAUAGCGUACUUCUUUUUCUUGCUUUCG [DMSMaPseq_invitro_SARS-CoV-2_Multi_80_ComplexLevel_1] , state whether its pull-down binding Z-score is greater than or equal to -0.4.
# output FALSE
